target: human IRAK4 (Homo sapiens (Human), UniProt Q9NWZ3); assay: IRAK4 kinase inhibition, Transcreener fluorescence polarization ADP assay; details: recombinant full-length His6-IRAK4; 125 uM ATP; 90 min; Ki computed using ATP Km 642 uM
Sequence (Q9NWZ3 whole entry): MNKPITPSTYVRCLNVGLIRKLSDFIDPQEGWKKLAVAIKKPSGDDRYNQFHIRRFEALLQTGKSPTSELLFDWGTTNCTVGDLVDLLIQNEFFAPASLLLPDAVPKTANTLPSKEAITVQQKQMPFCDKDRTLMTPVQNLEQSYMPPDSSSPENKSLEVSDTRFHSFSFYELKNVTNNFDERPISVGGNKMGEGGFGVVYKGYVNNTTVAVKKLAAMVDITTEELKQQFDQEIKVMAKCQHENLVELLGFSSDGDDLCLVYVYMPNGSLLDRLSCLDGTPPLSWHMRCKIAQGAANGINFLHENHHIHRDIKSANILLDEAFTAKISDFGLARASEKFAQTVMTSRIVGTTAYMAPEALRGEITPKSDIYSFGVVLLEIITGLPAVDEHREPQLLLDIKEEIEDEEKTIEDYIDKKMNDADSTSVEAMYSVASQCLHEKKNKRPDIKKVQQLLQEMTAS
observed-property: pKi
# reply with the number alone; pKi is -log10 of concentration in mol/L

Example entries begin here.
>  <molecule>
C[C@]1(CO)Cc2cc(NC(=O)c3cnn4cccnc34)c(N3CCC(C#N)CC3)cc2O1

>  <pKi>
8.70

$$$$
>  <molecule>
CC1(O)CN(c2cc3c(cc2NC(=O)c2cnn4cccnc24)CC(C)(C)O3)C1

>  <pKi>
6.14

$$$$
>  <molecule>
Cc1oc(=O)[nH]c1CN1CCN(c2cc3c(cc2NC(=O)c2cnn4cccnc24)CC(C)(C)O3)CC1

>  <pKi>
8.17

$$$$
>  <molecule>
CC(C)N1Cc2cc(NC(=O)c3cnn4cccnc34)c(N3CCN(CC(N)=O)CC3)cc2C1=O

>  <pKi>
8.40

$$$$
>  <molecule>
C[C@@H](O)[C@@H](F)CN1Cc2cc(NC(=O)c3cnn4cccnc34)c(N3CCOCC3)cc2C1=O

>  <pKi>
8.08

$$$$

In: So what's the measured pKi for this one? `C[C@]1(CO)Cc2cc(NC(=O)c3cnn4cccnc34)c(N3CCN(CC(F)F)CC3)cc2O1`
Out: 8.55

In: I am curious: what pKi value has been reported for CC1(C)Cc2cc(NC(=O)c3cnn4cccnc34)c(N3CCC4(CCCC4O)CC3)cc2O1 (stereo not shown) ?
Out: 8.38

In: // query pKi value for entry CC1(C)Cc2cc(NC(=O)c3cnn4cccnc34)c(N3CCN(C4CCNC4=O)CC3)cc2O1 (stereo not shown)
Out: 7.89

In: Look up pKi: CC1(C)Cc2cc(NC(=O)c3cnn4cccnc34)c(N3CCCC(O)CC3)cc2O1 (stereo not shown)
Out: 8.24

In: I am curious: what pKi value has been reported for `CC(C)(O)[C@H](F)CN1Cc2cc(NC(=O)c3cnn4cc(Cl)cnc34)c(N3CCN(CC(F)F)CC3)cc2C1=O` ?
Out: 8.70

In: What value of pKi has been reported for the following molecule? `O=C(Nc1cc2c(cc1N1CCOCC1)C(=O)N(C1COC1)C2)c1cnn2cccnc12`
Out: 7.54

In: Entry under review: `C[C@@]1(CO)Cc2cc(NC(=O)c3cnn4cc(F)cnc34)c(N3CCOCC3)cc2O1` . Reported pKi?
Out: 7.47

In: What measured pKi goes with `C[C@@]1(CO)Cc2cc(NC(=O)c3cnn4cccnc34)c(C(F)F)cc2O1` ?
Out: 6.44

In: Item under review: CC1Cc2cc(NC(=O)c3cnn4cccnc34)c(N3CCOCC3)cc2O1 (stereo not shown) . Reported pKi?
Out: 7.72

In: Tell me the measured pKi of `C[C@H]1CN(C)CC[C@]12Cc1cc(NC(=O)c3cnn4cccnc34)c(N3CCOCC3)cc1O2` , please.
Out: 8.59

In: May I ask what pKi has been recorded for `COCCCN1CCN(c2cc3c(cc2NC(=O)c2cnn4cccnc24)CC(C)(C)O3)CC1` ?
Out: 7.42

In: Form field: reported pKi of C[C@]1(CO)Cc2cc(NC(=O)c3cnn4cccnc34)c(N3Cc4cccnc4C3)cc2O1 (single isomer, unassigned)
Out: 8.05

Source listed as patent US10988478B1.
